Each record here notes measured pEC50.
molecular target: human activated kallikrein enzyme (Homo sapiens, UniProt P03952); experiment: Inhibition of human activated plasma kallikrein, fluorogenic PFR-AMC substrate, 500 pM enzyme format; type: biochemical; details: 500 pM activated kallikrein; 300 μM PFR-AMC; 30 min preincubation; 10 min room temperature; pH 7.5; read-out: Primary Dose Response Assay: Average EC50
Sequence (P03952 391-638 limits assumed): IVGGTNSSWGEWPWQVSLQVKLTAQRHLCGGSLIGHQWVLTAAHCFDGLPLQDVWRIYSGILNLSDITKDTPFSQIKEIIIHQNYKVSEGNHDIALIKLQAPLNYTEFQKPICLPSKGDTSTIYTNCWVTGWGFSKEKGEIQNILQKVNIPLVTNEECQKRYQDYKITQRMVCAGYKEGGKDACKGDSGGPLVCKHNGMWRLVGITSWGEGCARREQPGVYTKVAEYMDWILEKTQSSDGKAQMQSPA
Sequence (P03952 20-390 partner limits assumed): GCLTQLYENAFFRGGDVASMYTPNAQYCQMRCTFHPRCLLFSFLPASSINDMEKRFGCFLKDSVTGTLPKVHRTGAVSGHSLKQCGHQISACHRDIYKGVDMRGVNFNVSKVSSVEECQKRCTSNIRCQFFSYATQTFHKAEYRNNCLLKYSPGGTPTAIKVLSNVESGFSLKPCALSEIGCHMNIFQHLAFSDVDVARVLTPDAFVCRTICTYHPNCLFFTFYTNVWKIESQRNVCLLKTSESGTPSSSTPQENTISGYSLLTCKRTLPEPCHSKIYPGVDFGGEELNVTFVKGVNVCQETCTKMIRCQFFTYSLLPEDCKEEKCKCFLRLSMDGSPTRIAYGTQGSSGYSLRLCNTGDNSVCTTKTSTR
pEC50: −log10 of the molar value. Counter-ions that a name gives are not always drawn.

Cc1cc2c(N)nccc2c(C)c1CNc1cc(OCc2ccc3ncc(Cl)cc3c2)ncn1 [Example 373, formic acid salt] = 8.00 to 9.00
Cc1cc2c(N)nccc2c(C)c1CNc1cc(NCc2ccc(CC(=O)N3CC4CC4C3)cc2)ncn1 (stereo not shown) = > 9.00
Cc1cc2c(N)nccc2c(C)c1CNc1cc(OCc2ccc(CN3CCOCC3=O)cc2)cnn1 = > 9.00
Cc1cc2c(N)nccc2c(C)c1CNC(=O)c1cnn(Cc2ccc(Cc3cccn(C)c3=O)cc2)c1 = > 9.00
Cc1cc2c(N)nccc2c(C)c1CNC(=O)c1cnn(Cc2cccnc2)c1 = 7.00 to 8.00

Exam item: Bench note: what pEC50 did Cc1cnc2ccc(CNc3cc(NCc4c(C)cc5c(N)nccc5c4C)ncn3)cc2c1 show?
Marked response: > 9.00

Exam item: // same read-out, input: Cc1cc2c(N)nccc2c(C)c1CNC(=O)c1cnn(Cc2ccccc2C(F)(F)F)c1
Marked response: < 6.00

Exam item: // same read-out, input: Cc1cc2c(N)nccc2c(C)c1CNc1cc(NCc2cn3c(C)c(Cl)ccc3n2)ncn1
Marked response: > 9.00

Exam item: // same read-out, input: Cc1cc2c(N)nccc2c(C)c1CNC(=O)c1ccnc(C(=O)c2cn3cc(C4CC4)ccc3n2)c1
Marked response: 6.00 to 7.00

Exam item: // same read-out, input: Cc1cc2c(N)nccc2c(C)c1CNC(=O)c1cnn(Cc2ccc(CC(=O)N3CC4CC4C3)nc2)c1 (stereo not shown)
Marked response: > 9.00

Exam item: // same read-out, input: Cc1ccc2nc(Cn3cc(C(=O)NCc4c(C)cc5c(N(C(=O)OCc6ccccc6)C(=O)OCc6ccccc6)nccc5c4C)cn3)cn2c1
Marked response: < 6.00

Exam item: // same read-out, input: Cc1ccc(Cn2cc(C(=O)NCc3c(C)cc4c(N)nccc4c3C)cn2)cc1
Marked response: 7.00 to 8.00

Exam item: // same read-out, input: Cc1cc2c(N)nccc2c(C)c1CNc1cc2c(Cc3ccc4ccccc4c3)cn(C)c2cn1
Marked response: < 6.00

Exam item: // same read-out, input: Cc1cc2c(N)nccc2c(C)c1CNc1cc(NCc2ccc(OCC(=O)N3CCCC3)cc2)ncn1
Marked response: > 9.00

Exam item: // same read-out, input: Cc1cc2c(N)nccc2c(C)c1CNC(=O)c1cnn(Cc2ccc3cnccc3c2)c1
Marked response: 8.00 to 9.00

Exam item: // same read-out, input: Cc1cc2c(N)nccc2c(C)c1CNc1cc(OCc2ccc(Cn3cccn3)cc2)ccn1
Marked response: 8.00 to 9.00

----------
target: plasma kallikrein (Homo sapiens); construct: PFR-AMC substrate; experiment: Neat Human Plasma Assay (Fluorogenic Peptide), contact pathway-activated (FXIIa) plasma; assay type: biochemical; conditions: human citrated plasma 78% final; 10 nM human FXIIa; PFR-AMC substrate; 5 minutes; room temperature
Sequence (P03952 20-638): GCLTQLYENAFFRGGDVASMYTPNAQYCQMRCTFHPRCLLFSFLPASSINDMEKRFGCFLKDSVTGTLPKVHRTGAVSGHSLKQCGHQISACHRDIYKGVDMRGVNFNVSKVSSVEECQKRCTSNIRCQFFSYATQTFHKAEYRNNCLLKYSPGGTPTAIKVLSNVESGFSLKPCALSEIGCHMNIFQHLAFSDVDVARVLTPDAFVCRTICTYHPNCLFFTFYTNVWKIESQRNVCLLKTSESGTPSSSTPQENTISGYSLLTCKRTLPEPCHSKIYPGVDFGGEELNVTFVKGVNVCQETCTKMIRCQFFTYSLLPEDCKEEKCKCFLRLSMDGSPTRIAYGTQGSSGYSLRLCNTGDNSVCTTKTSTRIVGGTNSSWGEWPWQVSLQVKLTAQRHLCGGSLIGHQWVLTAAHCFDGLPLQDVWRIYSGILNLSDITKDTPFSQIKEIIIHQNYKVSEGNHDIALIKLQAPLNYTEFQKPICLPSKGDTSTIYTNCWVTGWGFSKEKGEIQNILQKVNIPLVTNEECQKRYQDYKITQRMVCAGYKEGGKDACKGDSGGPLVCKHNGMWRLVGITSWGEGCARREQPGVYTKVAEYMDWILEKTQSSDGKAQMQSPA
Counter-ions that a name gives are not always drawn.
Each record here notes measured IC90.

Exam item: Bench note: what IC90 did Cc1cc2c(N)nccc2c(C)c1CNc1cc2c(cn1)ncn2Cc1cc2cc(C3CC3)cnc2s1 show?
Marked response: ≤ 1000 nM

Exam item: // same read-out, input: Cc1cc2c(N)nccc2c(C)c1CNc1cc(NCc2cc3cc(C4CC4)ccn3n2)ncn1
Marked response: 1000 to 5000 nM

Exam item: // same read-out, input: Cc1cc2c(N)nccc2c(C)c1CNc1cc(OCc2cn3cc(C4CC4)ccc3n2)cnn1 [Example 426, formic acid salt]
Marked response: 1000 to 5000 nM

Exam item: // same read-out, input: Cc1cc2c(N)nccc2c(C)c1CNc1cc(OCc2cn3cc(C4CC4)ccc3n2)ncn1
Marked response: > 5000 nM

----------
target: human activated kallikrein enzyme (Homo sapiens); test: Inhibition of human activated plasma kallikrein, fluorogenic PFR-AMC substrate, 500 pM enzyme format; type: biochemical; details: 500 pM activated kallikrein; 300 μM PFR-AMC; 30 min preincubation; 10 min room temperature; pH 7.5; read-out: Primary Dose Response Assay: Average EC50
pEC50: −log10 of the molar value. Where a name gives a salt, the structure may show the parent alone.
Each record here notes measured pEC50.

Cc1cc2c(N)nccc2c(C)c1CNc1nccnc1NCc1cn2cc(C3CC3)ccc2n1 = 8.00 to 9.00
Cc1cc2c(N)nccc2c(C)c1CNc1ccc2ncc(Cc3ccc4ccccc4c3)n2c1 = < 6.00
Cc1cc2c(N)nccc2c(C)c1CNc1cc(NCc2ccc(Cn3ccccc3=O)cc2)ncn1 = > 9.00
Cc1cc2c(N)nccc2c(C)c1CNc1cc(NCc2cc3c(Cl)cccc3cn2)ncn1 [Example 328, formic acid salt] = 8.00 to 9.00
Cc1cc2c(N)nccc2c(C)c1CNC(=O)c1cnn(Cc2ccc(CC(=O)N3C(C)CCC3C)cc2)c1 (stereo not shown) = 8.00 to 9.00

Exam item: Bench note: what pEC50 did Cc1cc2c(N)nccc2c(C)c1CNc1cc(NCc2ccc(OCc3ncco3)cc2)ncn1 [Example 351, formic acid salt] show?
Marked response: 8.00 to 9.00

Exam item: // same read-out, input: CCOC(=O)CCc1nc(NCc2c(C)cc3c(N)nccc3c2C)cc(OCc2cn3cc(C4CC4)cnc3n2)n1
Marked response: 8.00 to 9.00

----------
molecular target: human activated kallikrein enzyme (Homo sapiens); test: Inhibition of human activated plasma kallikrein, fluorogenic PFR-AMC substrate, 500 pM enzyme format; assay type: biochemical; details: 500 pM activated kallikrein; 300 μM PFR-AMC; 30 min preincubation; 10 min room temperature; pH 7.5; read-out: Primary Dose Response Assay: Average EC50
pEC50: −log10 of the molar value.
readout-type: pEC50

Cc1cc2c(N)nccc2c(C)c1CNc1ccc2ncc(C(O)c3ccc4ccccc4c3)n2c1 (stereo not shown) = < 6.00
Cc1cc2c(N)nccc2c(C)c1CNc1cc(OCc2cn3cc(C4CC4)cc(-n4c(C)nnc4C)c3n2)ncn1 = 8.00 to 9.00
Cc1cc2c(N)nccc2c(C)c1CNc1nccn2nc(Cc3cn4cc(C5CC5)ccc4n3)nc12 = 8.00 to 9.00

Exam item: Bench note: what pEC50 did Cc1cc2c(N)nccc2c(C)c1CNC(=O)c1cnn(Cc2cc3cc(Br)ccc3s2)c1 show?
Marked response: > 9.00

Exam item: // same read-out, input: Cc1cc2c(N)nccc2c(C)c1CNc1cc(OCc2cn3cc(C4CC4)cc(N4CCCC4=O)c3n2)ncn1
Marked response: > 9.00

Exam item: // same read-out, input: Cc1cc2c(N)nccc2c(C)c1CNc1cc(NCc2cn3nc(C4CC4)ccc3n2)ncn1
Marked response: > 9.00

Exam item: // same read-out, input: Cc1cc2c(N)nccc2c(C)c1CNC(=O)c1cnc(Cc2cn3cc(C4CC4)ccc3n2)s1
Marked response: 8.00 to 9.00

Exam item: // same read-out, input: CCOC(=O)Nc1nccc2c(C)c(CNc3cc(N(Cc4ccc(Cn5ccccc5=O)cc4)C(=O)OCC)ncn3)c(C)cc12
Marked response: < 6.00

Exam item: // same read-out, input: Nc1nccc2cc(CNc3cc(OCc4ccc(Cn5cccn5)cc4)ncn3)c(C(F)(F)F)cc12
Marked response: 6.00 to 7.00

Exam item: // same read-out, input: Cc1cc2c(N)nccc2c(C)c1CNc1cc(OCc2ccc(Cn3cccn3)cc2)cnn1
Marked response: > 9.00

Exam item: // same read-out, input: Cc1c(CNC(=O)c2cnn(Cc3cn4cc(C5CC5)ccc4n3)c2)c(C)c2ccnc(N)c2c1C
Marked response: 7.00 to 8.00

Exam item: // same read-out, input: Cc1cnc2cc(CNc3cc(NCc4c(C)cc5c(N)nccc5c4C)ncn3)ccc2c1
Marked response: 8.00 to 9.00

Exam item: // same read-out, input: Cc1cc2c(N)nccc2c(C)c1CNC(=O)c1cnn(Cc2ccc(CC(=O)N3CC4CC4(C(=O)O)C3)cc2)c1 (stereo not shown)
Marked response: 7.00 to 8.00

Exam item: // same read-out, input: Cc1cc2c(N)nccc2c(C)c1CNC(=O)c1cnn(Cc2cn3c(F)c(C4CC4)ccc3n2)c1
Marked response: > 9.00

Exam item: // same read-out, input: Cc1cc2c(N)nccc2c(C)c1CNC(=O)c1cnn(Cc2ccc(CC(=O)N(C)C)c(Cl)c2)c1
Marked response: > 9.00

Exam item: // same read-out, input: Cc1cc2c(N)nccc2c(C)c1CNC(=O)c1cnn(Cc2ccc(C#N)cc2)c1
Marked response: 7.00 to 8.00

Exam item: // same read-out, input: Cc1ccc2nc(C(C(=O)O)n3cc(C(=O)NCc4c(C)cc5c(N)nccc5c4C)cn3)cn2c1 (stereo not shown)
Marked response: 8.00 to 9.00

Exam item: // same read-out, input: Cc1cc2c(N)nccc2c(C)c1CNC(=O)c1cnn(Cc2cc3cc(C(F)(F)F)ccc3s2)c1
Marked response: 8.00 to 9.00

All values here come from patent US20260374754A1.
